# reported concentration at 24 h; entries follow
# protocol-text: Plasma pharmacokinetics and brain distribution after single IV, IP and oral administration
# Format: in vivo
# stated-conditions: male, C57BL/6, mouse, in vivo, iv, 2 mg/kg, Plasma concentration, individual animal
Counter-ions that a name gives are not always drawn.
measured-parameter: concentration at 24 h (ng/mL)

[2H]C1([2H])Oc2ccc(Nc3nc(-c4c(C)nc5ccccn45)cs3)cc2O1 [Compound 17, hydrochloride]
0
[2H]C([2H])([2H])Oc1ccc(Nc2nc(-c3c(C)nc4ccccn34)cs2)cc1 [Compound 15, hydrochloride]
0

====

# protocol-text: Plasma pharmacokinetics and brain distribution after single IV, IP and oral administration
# Assay type: in vivo
# stated-conditions: male, C57BL/6, mouse, in vivo, ip, 10 mg/kg, Plasma concentration, individual animal
Where a name gives a salt, the structure may show the parent alone.
measured-parameter: concentration at 3 h (ng/mL)

[2H]C([2H])([2H])Oc1ccc(Nc2nc(-c3c(C)nc4ccccn34)cs2)cc1 [Compound 15, hydrochloride]
174

All values here come from patent US12215106B2.
